Molecular target: T1, Pro-C1s
T1 construct: also called purified pro-C1s protein
T1 chain: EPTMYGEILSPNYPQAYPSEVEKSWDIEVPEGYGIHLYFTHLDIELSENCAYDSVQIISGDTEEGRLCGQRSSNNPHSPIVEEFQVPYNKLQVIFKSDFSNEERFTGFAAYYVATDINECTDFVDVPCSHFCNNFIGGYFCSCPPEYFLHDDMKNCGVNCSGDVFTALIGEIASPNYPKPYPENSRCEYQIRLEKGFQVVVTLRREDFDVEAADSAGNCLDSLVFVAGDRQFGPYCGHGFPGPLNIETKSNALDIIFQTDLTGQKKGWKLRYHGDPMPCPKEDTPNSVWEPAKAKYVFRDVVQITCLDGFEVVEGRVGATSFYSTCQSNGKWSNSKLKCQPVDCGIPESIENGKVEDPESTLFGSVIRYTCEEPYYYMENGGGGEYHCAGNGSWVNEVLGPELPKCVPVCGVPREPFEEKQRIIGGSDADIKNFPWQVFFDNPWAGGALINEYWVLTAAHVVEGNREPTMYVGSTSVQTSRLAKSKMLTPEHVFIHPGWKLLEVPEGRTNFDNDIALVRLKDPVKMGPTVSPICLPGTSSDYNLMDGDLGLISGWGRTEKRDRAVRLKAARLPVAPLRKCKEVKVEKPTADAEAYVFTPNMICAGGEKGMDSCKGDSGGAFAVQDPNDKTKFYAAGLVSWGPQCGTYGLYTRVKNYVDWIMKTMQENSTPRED
Assay: bio-layer interferometry (BLI), kinetic analysis
Value type: koff (s⁻¹)
Please give a number only; it is taken to be in s⁻¹.

1) antibody IPN-M29 (antibody, V domains shown, Mouse monoclonal antibody (NZBW hybridoma)) VH: EVQLQQSGPELVKPGASVKISCKASGYSFTGFYMQWVKQSPEKNLEWIGEINPTTGDETYNQKFQAKATLTVDKSSSTAYMQLKSLTSEDSAVYFCASDFYDGSFAWFEYWGKDYLTVSA VL: DIVLTQSPVIMSASPGEKVTMTCSASSSISYIHWYQQKPGTSPKRWIYDTSKLASGVPARFSGSGSGTSYSLTISSMEAEDAATYYCHQRSSYLTFGSGTKLEIK ... 0.000408

In the following, a different binder is considered.
[Q] # koff lookup, item antibody IPN-M8 (antibody, V domains shown, Mouse monoclonal antibody (NZBW hybridoma); Same VL and VH as IPN-M2) VH: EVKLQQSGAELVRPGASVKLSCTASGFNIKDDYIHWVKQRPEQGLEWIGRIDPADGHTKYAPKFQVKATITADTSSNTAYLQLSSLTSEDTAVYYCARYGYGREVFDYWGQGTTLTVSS VL: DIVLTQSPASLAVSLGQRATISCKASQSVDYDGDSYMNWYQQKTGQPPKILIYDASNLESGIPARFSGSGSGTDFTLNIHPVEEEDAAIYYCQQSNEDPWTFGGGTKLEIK
[A] 0.000178
